Biological target: full-length LRRK2 G2019S (Homo sapiens, UniProt Q5S007, G2019S)
Construct: DYKDDDDK (FLAG)
Sequence (Q5S007 whole entry G2019S): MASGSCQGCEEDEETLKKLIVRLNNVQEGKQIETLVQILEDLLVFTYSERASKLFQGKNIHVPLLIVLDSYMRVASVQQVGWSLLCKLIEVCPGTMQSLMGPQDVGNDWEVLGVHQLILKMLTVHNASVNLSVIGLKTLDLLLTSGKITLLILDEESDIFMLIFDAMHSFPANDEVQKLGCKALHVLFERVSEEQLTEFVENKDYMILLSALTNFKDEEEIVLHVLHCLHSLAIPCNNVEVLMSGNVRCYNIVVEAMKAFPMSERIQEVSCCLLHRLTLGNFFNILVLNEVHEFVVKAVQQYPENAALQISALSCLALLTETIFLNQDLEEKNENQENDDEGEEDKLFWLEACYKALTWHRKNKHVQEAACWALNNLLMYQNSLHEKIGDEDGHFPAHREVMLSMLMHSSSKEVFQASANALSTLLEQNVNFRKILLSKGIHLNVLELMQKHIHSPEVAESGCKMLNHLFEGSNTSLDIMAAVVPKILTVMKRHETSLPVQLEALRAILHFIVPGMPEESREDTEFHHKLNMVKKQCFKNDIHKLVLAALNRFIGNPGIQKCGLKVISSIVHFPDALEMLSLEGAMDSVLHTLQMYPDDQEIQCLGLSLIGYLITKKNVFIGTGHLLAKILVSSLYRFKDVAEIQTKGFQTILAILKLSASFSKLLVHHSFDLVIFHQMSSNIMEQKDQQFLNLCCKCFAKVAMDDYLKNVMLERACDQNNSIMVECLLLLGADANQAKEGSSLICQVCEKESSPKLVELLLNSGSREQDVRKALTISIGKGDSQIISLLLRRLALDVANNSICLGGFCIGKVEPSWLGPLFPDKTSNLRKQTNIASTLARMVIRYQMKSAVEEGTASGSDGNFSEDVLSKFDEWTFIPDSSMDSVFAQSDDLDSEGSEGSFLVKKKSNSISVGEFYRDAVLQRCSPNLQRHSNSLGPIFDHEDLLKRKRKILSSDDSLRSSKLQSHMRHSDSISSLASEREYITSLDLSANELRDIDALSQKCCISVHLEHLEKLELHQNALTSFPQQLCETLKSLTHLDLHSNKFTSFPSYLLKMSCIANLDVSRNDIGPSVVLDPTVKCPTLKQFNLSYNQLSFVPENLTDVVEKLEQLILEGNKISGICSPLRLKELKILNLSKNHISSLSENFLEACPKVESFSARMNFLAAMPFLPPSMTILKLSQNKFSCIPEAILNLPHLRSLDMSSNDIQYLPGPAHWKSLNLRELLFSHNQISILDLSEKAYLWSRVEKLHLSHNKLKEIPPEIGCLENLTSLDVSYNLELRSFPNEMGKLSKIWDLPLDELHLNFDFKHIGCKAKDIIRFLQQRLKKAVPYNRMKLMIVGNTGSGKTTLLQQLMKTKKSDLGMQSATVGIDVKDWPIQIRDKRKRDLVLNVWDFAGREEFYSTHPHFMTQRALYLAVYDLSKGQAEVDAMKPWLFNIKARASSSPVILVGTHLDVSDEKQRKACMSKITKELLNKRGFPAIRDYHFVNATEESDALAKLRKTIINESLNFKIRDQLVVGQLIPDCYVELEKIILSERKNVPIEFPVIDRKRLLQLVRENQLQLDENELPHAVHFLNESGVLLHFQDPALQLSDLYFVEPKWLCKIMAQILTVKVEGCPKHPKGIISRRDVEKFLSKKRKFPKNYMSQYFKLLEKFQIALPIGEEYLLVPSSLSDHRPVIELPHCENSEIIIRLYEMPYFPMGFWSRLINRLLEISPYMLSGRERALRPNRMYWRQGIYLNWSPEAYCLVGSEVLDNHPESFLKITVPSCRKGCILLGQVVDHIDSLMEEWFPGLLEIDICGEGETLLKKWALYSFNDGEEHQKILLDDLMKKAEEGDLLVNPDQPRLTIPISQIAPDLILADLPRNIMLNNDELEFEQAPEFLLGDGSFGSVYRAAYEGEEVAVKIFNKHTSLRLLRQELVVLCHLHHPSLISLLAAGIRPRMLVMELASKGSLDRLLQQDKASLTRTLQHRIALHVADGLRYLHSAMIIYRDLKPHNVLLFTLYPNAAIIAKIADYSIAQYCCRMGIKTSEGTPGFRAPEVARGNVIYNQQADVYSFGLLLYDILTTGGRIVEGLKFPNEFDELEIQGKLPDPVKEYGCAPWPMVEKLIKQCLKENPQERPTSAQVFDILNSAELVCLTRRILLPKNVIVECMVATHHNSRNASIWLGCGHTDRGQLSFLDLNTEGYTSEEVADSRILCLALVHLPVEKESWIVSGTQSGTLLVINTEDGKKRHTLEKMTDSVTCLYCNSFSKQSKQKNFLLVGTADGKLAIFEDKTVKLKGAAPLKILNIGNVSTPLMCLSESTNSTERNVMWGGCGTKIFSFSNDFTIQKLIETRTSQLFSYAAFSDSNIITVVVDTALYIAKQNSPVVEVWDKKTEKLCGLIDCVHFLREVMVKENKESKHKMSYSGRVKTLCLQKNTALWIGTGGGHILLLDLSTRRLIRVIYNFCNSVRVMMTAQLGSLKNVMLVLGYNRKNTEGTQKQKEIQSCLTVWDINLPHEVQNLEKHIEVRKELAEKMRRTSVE
Experiment: LRRK2-G2019S kinase activity assay (Lanthascreen TR-FRET)
Conditions: 1.1 mM ATP
Items are presented alongside their recorded log10(IC50).
measured endpoint: log10(IC50) (log10 of the value in nM)

molecule: C[C@@H]1OC[C@H]1n1c(C#N)cc2cnc(Nc3cn(C)nc3OC3COC3)nc21 (single isomer, unassigned) [Example 76]
log10(IC50): 2.30
//
molecule: [2H]C([2H])([2H])n1cc(Nc2ncc3cc(C#N)n([C@H]4COC[C@@H]4C)c3n2)c(OC2COC2(C)C)n1 (single isomer, unassigned) [Example 119]
log10(IC50): 1.23
//
molecule: C[C@@H]1COC[C@H]1Oc1nn(C)cc1Nc1ncc2cc(C#N)n([C@H]3COC[C@@H]3C)c2n1 (single isomer, unassigned) [Example 2]
log10(IC50): 0.70
//
molecule: CC(C(F)F)n1cc(Nc2ncc3cc(C#N)n([C@H]4COC[C@@H]4C)c3n2)c(OC2COC2)n1 (single isomer, unassigned) [Example 4]
log10(IC50): 0.00
//
molecule: CC(C)Oc1nn(C)cc1Nc1ncc2cc(C#N)n([C@H]3COC[C@@H]3C)c2n1 [Example 26]
log10(IC50): 0.00
//
molecule: COCC(C)n1c(C#N)cc2cnc(Nc3cn(C4CCC(C)(O)CC4)nc3OC(C)C)nc21 (stereo not shown) [Example 105]
log10(IC50): 1.76
//
molecule: COC[C@H](C)n1c(C#N)cc2cnc(Nc3cn(CCO)nc3OC3COC3)nc21 [Example 139]
log10(IC50): 1.30
//
molecule: COCC(C)n1cc(Nc2ncc3cc(C#N)n(C4CCOCC4)c3n2)c(OC2CC2)n1 (single isomer, unassigned) [Example 127]
log10(IC50): 2.26
//
molecule: [2H]C([2H])([2H])n1cc(Nc2ncc3cc(C#N)n([C@H]4COC[C@@H]4C)c3n2)c(OC2COC2(C)C)n1 (single isomer, unassigned) [Example 118]
log10(IC50): 1.46
//
molecule: COC[C@H](C)n1c(C#N)cc2cnc(Nc3cn(C)nc3O[C@@H]3CO[C@H]3C)nc21 (single isomer, unassigned) [Example 88]
log10(IC50): 1.08
//
molecule: C[C@@H]1OC[C@H]1n1c(C#N)cc2cnc(Nc3cn(C)nc3OC3COC3)nc21 (single isomer, unassigned) [Example 77]
log10(IC50): 1.32
//
molecule: C[C@@H]1COCC[C@H]1n1c(C#N)cc2cnc(Nc3cn(CCO)nc3OC3COC3)nc21 (single isomer, unassigned) [Example 160]
log10(IC50): 2.41
//
molecule: [2H]C([2H])([2H])n1cc(Nc2ncc3cc(C#N)n(C4COCC4C)c3n2)c(OC2CCC2(C)O)n1 (mixture of isomers) [Example 142]
log10(IC50): 0.70

---

Items are presented alongside their recorded IC50.
Target: full-length LRRK2 G2019S (Homo sapiens, UniProt Q5S007, G2019S)
Construct: DYKDDDDK (FLAG)
Experiment: LRRK2-G2019S kinase activity assay (Lanthascreen TR-FRET)
Details: 1.1 mM ATP
measured endpoint: IC50 (nM)

compound: COCn1cc(Nc2ncc3cc(C#N)n([C@H]4COC[C@@H]4C)c3n2)c(O[C@@H]2CO[C@H]2C)n1 (mixture of isomers)
measured endpoint: IC50
endpoint unit: nM
test result: 8

compound: C[C@H]1COC[C@@H]1n1c(C#N)cc2cnc(Nc3cn(CS(C)(=O)=O)nc3OC3CC3)nc21
measured endpoint: IC50
endpoint unit: nM
test result: 1

compound: [2H]C([2H])([2H])n1cc(Nc2ncc3cc(C#N)n([C@H]4COC[C@@H]4C)c3n2)c(OC2COC2)n1
measured endpoint: IC50
endpoint unit: nM
test result: 5

compound: [2H]C([2H])([2H])n1cc(Nc2ncc3cc(C#N)n([C@H]4COC[C@@H]4C)c3n2)c(OC2CC2)n1
measured endpoint: IC50
endpoint unit: nM
test result: 3

compound: [2H]C([2H])([2H])n1cc(Nc2ncc3cc(C#N)n([C@H]4COC[C@@H]4C)c3n2)c(OC2CCOC2)n1 (single isomer, unassigned) [Example 112]
measured endpoint: IC50
endpoint unit: nM
test result: 16

compound: COCC(C)n1cc(Nc2ncc3cc(C#N)n(C4CCOCC4)c3n2)c(OC2CC2)n1 (single isomer, unassigned) [Example 126]
measured endpoint: IC50
endpoint unit: nM
test result: 83

compound: [2H]C([2H])([2H])n1cc(Nc2ncc3cc(C#N)n([C@@H](C)COC)c3n2)c(OC2C(C)(C)C(O)C2(C)C)n1 (single isomer, unassigned) [Example 133]
measured endpoint: IC50
endpoint unit: nM
test result: 14

compound: [2H]C([2H])([2H])n1cc(Nc2ncc3cc(C#N)n([C@@H](C)COC)c3n2)c(OC2CC(O)C2(C)C)n1 (single isomer, unassigned) [Example 134]
measured endpoint: IC50
endpoint unit: nM
test result: 5

compound: [2H]C([2H])([2H])n1cc(Nc2ncc3cc(C#N)n([C@@H](C)COC)c3n2)c(O[C@@H]2COC[C@H]2O)n1 (single isomer, unassigned) [Example 116]
measured endpoint: IC50
endpoint unit: nM
test result: 50

compound: CC(C)Oc1nn(C2COC2)cc1Nc1ncc2cc(C#N)n([C@H]3COC[C@@H]3C)c2n1
measured endpoint: IC50
endpoint unit: nM
test result: 2

compound: CCn1cc(Nc2ncc3cc(C#N)n([C@H]4COC[C@@H]4C)c3n2)c(OC2COC2)n1
measured endpoint: IC50
endpoint unit: nM
test result: 5

compound: [2H]C([2H])([2H])n1cc(Nc2ncc3cc(C#N)n([C@@H](C)COC)c3n2)c(O[C@@H]2CO[C@H]2C)n1 (single isomer, unassigned)
measured endpoint: IC50
endpoint unit: nM
test result: 8

compound: [2H]C([2H])([2H])n1cc(Nc2ncc3cc(C#N)n(C4CCOCC4)c3n2)c(OC2COC2(C)C)n1 (single isomer, unassigned) [Example 121]
measured endpoint: IC50
endpoint unit: nM
test result: 181

compound: COCC(C)n1c(C#N)cc2cnc(Nc3cn(C4CCC(C)(O)CC4)nc3OC3CC3)nc21 (centres unmarked) [Example 107]
measured endpoint: IC50
endpoint unit: nM
test result: 81

compound: COCC(C)n1cc(Nc2ncc3cc(C#N)n([C@@H](C)COC)c3n2)c(OC2COC2)n1 (single isomer, unassigned) [Example 130]
measured endpoint: IC50
endpoint unit: nM
test result: 57

compound: C[C@@H]1COC[C@H]1Oc1nn(C)cc1Nc1ncc2cc(C#N)n([C@H]3COC[C@@H]3C)c2n1 (single isomer, unassigned) [Example 3]
measured endpoint: IC50
endpoint unit: nM
test result: 4

compound: COCn1cc(Nc2ncc3cc(C#N)n([C@H]4COC[C@@H]4C)c3n2)c(OC2COC2)n1
measured endpoint: IC50
endpoint unit: nM
test result: 9

compound: [2H]C([2H])([2H])n1cc(Nc2ncc3cc(C#N)n([C@@H](C)COC)c3n2)c(OC2COC2(C)C)n1 (single isomer, unassigned) [Example 99]
measured endpoint: IC50
endpoint unit: nM
test result: 36

compound: C[C@@H]1OC[C@H]1Oc1nn(C)cc1Nc1ncc2cc(C#N)n([C@H]3COC[C@@H]3C)c2n1 (single isomer, unassigned) [Example 6]
measured endpoint: IC50
endpoint unit: nM
test result: 4

compound: [2H]C([2H])([2H])n1cc(Nc2ncc3cc(C#N)n([C@H]4COC[C@@H]4C)c3n2)c(O[C@H]2CO[C@H]2C)n1 (single isomer, unassigned)
measured endpoint: IC50
endpoint unit: nM
test result: 8

compound: [2H]C([2H])([2H])n1cc(Nc2ncc3cc(C#N)n([C@@H](C)COC)c3n2)c(OC2CCOC2)n1 (single isomer, unassigned) [Example 102]
measured endpoint: IC50
endpoint unit: nM
test result: 41

compound: CC(C)Oc1nn(CC(F)(F)F)cc1Nc1ncc2cc(C#N)n([C@H]3COC[C@@H]3C)c2n1
measured endpoint: IC50
endpoint unit: nM
test result: 1

compound: COCn1cc(Nc2ncc3cc(C#N)n([C@H]4COC[C@@H]4C)c3n2)c(OC2CC2)n1
measured endpoint: IC50
endpoint unit: nM
test result: 6

compound: [2H]C([2H])([2H])n1cc(Nc2ncc3cc(C#N)n([C@@H](C)COC)c3n2)c(OC2COC2)n1
measured endpoint: IC50
endpoint unit: nM
test result: 7

compound: CC(C)Oc1nn(C)cc1Nc1ncc2cc(C#N)n([C@@H]3CO[C@H]3C)c2n1 (single isomer, unassigned) [Example 78]
measured endpoint: IC50
endpoint unit: nM
test result: 64

compound: CC(CO)n1cc(Nc2ncc3cc(C#N)n([C@H]4COC[C@@H]4C)c3n2)c(OC2COC2)n1 (some centres unmarked)
measured endpoint: IC50
endpoint unit: nM
test result: 5
